- method: protein stability index of a GFP-peptide fusion (yeast GPS) (PSI 1-4); higher = more stable; sorted into four equal gates, so the index is relative within each strain
- testSettings: san1∆
quantityKind: protein stability index

>>> experimentalvalue("KRVKSYMDKAKQYDNRI [LRP1]")
2.92
>>> experimentalvalue("SIQEQIQEFQGNPYIEL [SNF5]")
3.49
>>> experimentalvalue("MSDSPLSKRQKRKSAQE [SMC4]")
3.04
>>> experimentalvalue("TATLAWGVNLPAHTVII [BRR2]")
1.81
>>> experimentalvalue("AYAQVEIQPRANIQLDF [FAS2]")
3.08
>>> experimentalvalue("KLSCIQLNCIDTQFTKL [SRB8]")
2.31
>>> experimentalvalue("VNVEKFNVEYFAKEKLT [RPL6A]")
2.08
>>> experimentalvalue("SDPLTVFSESCSNESFA [SNU114]")
2.58
>>> experimentalvalue("FEQKGSQTTTNDSKEES [YLR335W/NUP2]")
2.98
>>> experimentalvalue("RSIRGSFTSQGTISIQL [MTR3]")
2.77
>>> experimentalvalue("DITDGKDYHTLANNVES [RPS18A]")
3.22
>>> experimentalvalue("ANRSRFNNEAPPQTRKF [SMB1]")
2.87
>>> experimentalvalue("RTTTNTTAEPKAKRAKT [TAF14]")
3.1
>>> experimentalvalue("LEKDAADCQAELTKTKS [YIL149C/MLP2]")
2.75
>>> experimentalvalue("FTSAPIEVTIGIDQYSF [AAR2]")
1.53
>>> experimentalvalue("DSFTMPNISHSNIDYQT [SNF2]")
2.49
>>> experimentalvalue("QKNDTAAFKDIAKRQFK [RRP40]")
2.76
>>> experimentalvalue("KSLESQRYVKSVKSVKF [RPC34]")
2.16
>>> experimentalvalue("ESDSKLQCHISGTTNFM [UBP6]")
2.92
>>> experimentalvalue("KCQTCQEGMNECPGHFG [RPO21]")
3.51
>>> experimentalvalue("LPGTEKGRKTNKYANND [CSL4]")
3.2
>>> experimentalvalue("MAKRTKKVGITGKYGVR [RPL43A]")
3.09
>>> experimentalvalue("PIAAPKKPRKPRQTKKA [PGD1]")
2.56
>>> experimentalvalue("KMIEKIEKMSTIVQLCK [YIL149C/MLP2]")
1.98
>>> experimentalvalue("DIDDILKKGEQKTQELN [ISW2]")
3.44
>>> experimentalvalue("IKETKENDEEFYKNKYS [RPN2]")
1.31
>>> experimentalvalue("YLLTQQQIWKSPNFKNY [SOH1]")
1.18
>>> experimentalvalue("KGDINPEVSMIRDIREK [RPB2]")
3.4
>>> experimentalvalue("EHEEKEKERETNKKGIK [RPN2]")
3.33
>>> experimentalvalue("ELQKSLSLEEVEGHLFE [FAS1]")
3.35
>>> experimentalvalue("IYISNLVRSIIAFDDLI [RPN8]")
1.17
>>> experimentalvalue("SDVLLFQLPTTCVSMAP [RGR1]")
1.87
>>> experimentalvalue("TELKKITDKTIKAFMDS [IRR1]")
2.46
>>> experimentalvalue("MFDAFVSFYFEDGTIES [SIN4]")
2.52
>>> experimentalvalue("VYSFDPVGSYEREQCRA [PRE7]")
3.27
>>> experimentalvalue("VTRIINSSEIQSAIRPA [RPL4A]")
2.37
>>> experimentalvalue("QSSSSTRSHEYGRKSFR [REC8]")
2.84
>>> experimentalvalue("YIDIRTNNVLRKLGLLG [MTW1]")
1.64
>>> experimentalvalue("IPPDQQRLIFAGKQLED [RPS31]")
3.18
>>> experimentalvalue("LYKLNDKIAVAVAGLTA [PRE9]")
2.18
>>> experimentalvalue("AGTEANAVSFDTTFSDF [SRB4]")
3.04
>>> experimentalvalue("SVAEKEEIRSQIDHFKS [SWI3]")
2.8
>>> experimentalvalue("DIDDELNELETLIKKKQ [SMC2]")
2.99
>>> experimentalvalue("YYYNTKIYKLENGERKL [YMR129W/POM152]")
3.1
>>> experimentalvalue("TSVDGKKRSKVRKETYS [HTB2]")
3.15
>>> experimentalvalue("QELELPGEFVTAIAHSI [SNF5]")
2.38
>>> experimentalvalue("TDCKFIRVSGAELVQKY [RPT6]")
3.16
>>> experimentalvalue("DPEKDSINATALAFGYV [SIN4]")
1.52
>>> experimentalvalue("ALSQSSLLKTKLKQQSS [RRI1]")
2.22
>>> experimentalvalue("DHLKLVSLFSNLRHERN [YIL149C/MLP2]")
2.5
>>> experimentalvalue("ERVRLRPEQLSNIIHDE [SNF6]")
1.76
>>> experimentalvalue("HGIVFQHPFPLAHSQHR [SSN2]")
2.01
>>> experimentalvalue("EMSNKVLKVDKRFMNTS [BRR2]")
2.99
>>> experimentalvalue("PLAKKQTVRLIKDLQRA [SIR2]")
2.77
>>> experimentalvalue("AKIYPGRGTLFVRGDSK [RPL24A]")
1.97
>>> experimentalvalue("KKKRSRTSATREDTPLS [ISW2]")
3.45
>>> experimentalvalue("APGASVPATAAPGTEAG [SWI1]")
2.92
>>> experimentalvalue("MTRSSVLADALNAINNA [RPS22A]")
2.72
>>> experimentalvalue("WVNMLLISSSGPIKTPV [FAS2]")
1.23
>>> experimentalvalue("LTQLLSMMSDGIEHFDI [RPO31]")
3.1
>>> experimentalvalue("FTLWWSPTINRANVYVG [PRP8]")
1.61
